Assignment: determine reported IC50 for the given compounds.
- test_target: Mitogen-activated protein kinase 14 (Homo sapiens)
- Sequence (Q16539 whole entry): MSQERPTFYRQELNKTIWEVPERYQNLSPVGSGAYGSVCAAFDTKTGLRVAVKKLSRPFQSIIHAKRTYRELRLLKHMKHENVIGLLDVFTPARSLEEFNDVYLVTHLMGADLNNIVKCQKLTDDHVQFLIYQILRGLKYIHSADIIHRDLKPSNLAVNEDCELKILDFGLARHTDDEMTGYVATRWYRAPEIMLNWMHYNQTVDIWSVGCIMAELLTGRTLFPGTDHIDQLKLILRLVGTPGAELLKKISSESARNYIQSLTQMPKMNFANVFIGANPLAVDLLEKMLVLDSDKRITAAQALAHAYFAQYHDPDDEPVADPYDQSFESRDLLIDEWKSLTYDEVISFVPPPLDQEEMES
- assay_notes: Inhibition of human p38alpha using biotinylated ATF2 substrate by FRET assay
Numeric answer only, unit nM assumed.

Sample Cc1ccc(C(=O)NC2CC2)cc1-c1ccc2c(c1)NC(=O)C21CCOCC1 ; IC50 observed: 1.65

Sample Cc1ccc(C(=O)NC2CC2)cc1-c1ccc2c(c1)NC(=O)[C@]21CC[C@H](O)CC1 ; IC50 observed: 1.4

Sample Cc1ccc(C(=O)NC2CC2)cc1-c1cnc2c(c1)NC(=O)C21CCCC1 ; IC50 observed: 1.8

Sample Cc1ncc(C(=O)NC2CC2)cc1-c1ccc2c(c1)NC(=O)C21CCCC1 ; IC50 observed: 7.4

Sample Cc1ccc(C(=O)Nc2ccon2)cc1-c1ccc2c(c1)NC(=O)C21CCC(F)(F)CC1 ; IC50 observed: 0.9

Sample Cc1ccc(C(=O)Nc2ccon2)cc1-c1ccc2c(c1)NC(=O)C21CCOCC1 ; IC50 observed: 0.09

Sample Cc1ccc(C(=O)NC2CC2)cc1-c1ccc2c(c1)NC(=O)C21CCSCC1 ; IC50 observed: 0.08

Sample Cc1ccc(C(=O)NC2CC2)cc1-c1cnc2c(c1)NC(=O)C21CCC(F)(F)CC1 ; IC50 observed: 2.3

Sample Cc1ccc(C(=O)NC2CC2)cc1-c1ccc2c(c1)NC(=O)[C@]21CC[C@@H](O)CC1 ; IC50 observed: 1.4

Sample Cc1ccc(C(=O)NC2CC2)cc1-c1ccc2c(c1)NC(=O)C2(CCO)CCO ; IC50 observed: 4570

###

- assay_notes: Metabolic stability in human hepatic microsomes assessed as compound turnover at 5 uM in presence of NADPH after 30 mins
- Type: ADME
- test_conditions: liver microsomes, read-out: Activity
metabolised at 0.5 h, 5 µM vs 10%: less than gives Met; not less than gives Not met.

# input Please indicate whether the reported metabolised at 0.5 h, 5 µM of Cc1ccc(C(=O)NC2CC2)cc1-c1ccc2c(c1)NC(=O)C21CCCCC1 is strictly below 10%.
# output Not met

# input Please indicate whether the reported metabolised at 0.5 h, 5 µM of Cc1ccc(C(=O)NC2CC2)cc1-c1ccc2c(n1)NC(=O)C21CCCC1 is strictly below 10%.
# output Not met

# input Please indicate whether the reported metabolised at 0.5 h, 5 µM of Cc1ccc(C(=O)NC2CC2)cc1-c1cnc2c(c1)NC(=O)C21CCC(F)(F)CC1 is strictly below 10%.
# output Met

# input Please indicate whether the reported metabolised at 0.5 h, 5 µM of Cc1ccc(C(=O)NC2CC2)cc1-c1cnc2c(c1)NC(=O)C21CCOCC1 is strictly below 10%.
# output Met

# input Please indicate whether the reported metabolised at 0.5 h, 5 µM of Cc1ncc(C(=O)NC2CC2)cc1-c1ccc2c(c1)NC(=O)C21CCCC1 is strictly below 10%.
# output Not met

# input Please indicate whether the reported metabolised at 0.5 h, 5 µM of Cc1ccc(C(=O)NC2CC2)cc1-c1ccc2c(c1)NC(=O)C21CCSCC1 is strictly below 10%.
# output Not met

# input Please indicate whether the reported metabolised at 0.5 h, 5 µM of Cc1ccc(C(=O)NC2CC2)cc1-c1cnc2c(c1)NC(=O)C2(C)C is strictly below 10%.
# output Met

# input Please indicate whether the reported metabolised at 0.5 h, 5 µM of Cc1ccc(C(=O)NC2CC2)cc1-c1cnc2c(c1)NC(=O)C21CCCC1 is strictly below 10%.
# output Not met

# input Please indicate whether the reported metabolised at 0.5 h, 5 µM of Cc1c(F)cc(C(=O)NC2CC2)cc1-c1ccc2c(c1)NC(=O)C21CCN(S(C)(=O)=O)CC1 is strictly below 10%.
# output Not met

###

Assignment: determine reported Cmax for the given compounds.
- assay_notes: Cmax in rat at 1 mg/kg, iv
- Format: ADME, organism-based
- Design: dose 1 mg/kg, route intravenous
- test_conditions: in vivo
Numeric answer only, unit ng/mL assumed.

Sample Cc1ccc(C(=O)NC2CC2)cc1-c1ccc2c(c1)NC(=O)C21CCN(C)CC1 ; Cmax observed: 133

Sample Cc1ccc(C(=O)NC2CC2)cc1-c1ccc2c(c1)NC(=O)C21CCC(F)(F)CC1 ; Cmax observed: 436

Sample Cc1ccc(C(=O)NC2CC2)cc1-c1ccc2c(c1)NC(=O)C21CCOCC1 ; Cmax observed: 1530

Sample Cc1ccc(C(=O)NC2CC2)cc1-c1cnc2c(c1)NC(=O)C21CCCC1.Cl ; Cmax observed: 1240

###

Assignment: determine reported clearance for the given compounds.
- assay_notes: Clearance in rat at 1 mg/kg, iv
- Type: ADME, organism-based
- Design: dose 1 mg/kg, route intravenous
- test_conditions: in vivo
Numeric answer only, unit mL/min/kg assumed.

Sample Cc1ccc(C(=O)NC2CC2)cc1-c1ccc2c(c1)NC(=O)C21CCOCC1 ; clearance observed: 6.67

Sample Cc1ccc(C(=O)NC2CC2)cc1-c1ccc2c(c1)NC(=O)C21CCC(F)(F)CC1 ; clearance observed: 3.33

Sample Cc1ccc(C(=O)NC2CC2)cc1-c1ccc2c(c1)NC(=O)C21CCN(C)CC1 ; clearance observed: 73.3

Sample Cc1ccc(C(=O)NC2CC2)cc1-c1cnc2c(c1)NC(=O)C21CCCC1.Cl ; clearance observed: 10

###

Assignment: determine reported metabolised at 0.5 h, 5 µM for the given molecules.
- assay_notes: Metabolic stability in rat hepatic microsomes assessed as compound turnover at 5 uM in presence of NADPH after 30 mins
- Format: ADME
- test_conditions: liver microsomes, read-out: Activity
Numeric answer only, unit % assumed.

Sample Cc1ccc(C(=O)NC2CC2)cc1-c1ccc2c(n1)NC(=O)C21CCCC1 ; metabolised at 0.5 h, 5 µM observed: 33

Sample Cc1ccc(C(=O)NC2CC2)cc1-c1cnc2c(c1)NC(=O)C21CCC(F)(F)CC1 ; metabolised at 0.5 h, 5 µM observed: 19

Sample Cc1ccc(C(=O)NC2CC2)cc1-c1ccc2c(c1)NC(=O)C21CCCC1 ; metabolised at 0.5 h, 5 µM observed: 44

Sample Cc1ccc(C(=O)NC2CC2)cc1-c1ccc2c(c1)NC(=O)C21CCS(=O)(=O)CC1 ; metabolised at 0.5 h, 5 µM observed: 0

Sample Cc1ccc(C(=O)NC2CC2)cc1-c1ccc2c(c1)NC(=O)C21CCCCC1 ; metabolised at 0.5 h, 5 µM observed: 47

Sample Cc1ccc(C(=O)NC2CC2)cc1-c1cnc2c(c1)NC(=O)C21CCCC1 ; metabolised at 0.5 h, 5 µM observed: 16

Sample Cc1c(F)cc(C(=O)NC2CC2)cc1-c1ccc2c(c1)NC(=O)C21CCN(S(C)(=O)=O)CC1 ; metabolised at 0.5 h, 5 µM observed: 18

Sample Cc1ccc(C(=O)NC2CC2)cc1-c1cnc2c(c1)NC(=O)C2(C)C ; metabolised at 0.5 h, 5 µM observed: 2

Sample Cc1ccc(C(=O)NC2CC2)cc1-c1ccc2c(c1)NC(=O)C21CCN(C)CC1 ; metabolised at 0.5 h, 5 µM observed: 13

Sample Cc1ccc(C(=O)NC2CC2)cc1-c1cc2c(cn1)C1(CCCC1)C(=O)N2 ; metabolised at 0.5 h, 5 µM observed: 21

Sample Cc1ccc(C(=O)NC2CC2)cc1-c1ccc2c(c1)NC(=O)C21CCOCC1 ; metabolised at 0.5 h, 5 µM observed: 16

Sample Cc1ccc(C(=O)Nc2ccon2)cc1-c1ccc2c(c1)NC(=O)C21CCOCC1 ; metabolised at 0.5 h, 5 µM observed: 23

###

Assignment: determine reported pIC50 for the given compounds.
- test_target: Mitogen-activated protein kinase 14 (Homo sapiens)
- assay_notes: Inhibition of p38alpha in human whole blood assessed as reduction in TNF-alpha production by ELISA
The scale used: pIC50 is minus the common logarithm of the concentration in molar units.

Sample Cc1ccc(C(=O)Nc2ccon2)cc1-c1ccc2c(c1)NC(=O)C21CCOCC1 ; pIC50 observed: 8.15

Sample Cc1ccc(C(=O)NC2CC2)cc1-c1ccc2c(c1)NC(=O)C21CCC(F)(F)CC1 ; pIC50 observed: 8.00

Sample Cc1ccc(C(=O)NC2CC2)cc1-c1ccc2c(c1)NC(=O)C21CCOCC1 ; pIC50 observed: 7.85

###

- assay_notes: Metabolic stability in human hepatic microsomes assessed as compound turnover at 5 uM in absence of NADPH after 30 mins
- Assay type: ADME
- test_conditions: liver microsomes, read-out: Activity
Assignment: determine reported metabolised at 0.5 h, 5 µM for the given compounds.

Sample Cc1ccc(C(=O)NC2CC2)cc1-c1cnc2c(c1)NC(=O)C21CCC(F)(F)CC1 ; metabolised at 0.5 h, 5 µM observed: < 5%

Sample Cc1ccc(C(=O)NC2CC2)cc1-c1cc2c(cn1)C1(CCCC1)C(=O)N2 ; metabolised at 0.5 h, 5 µM observed: < 5%

Sample Cc1ccc(C(=O)NC2CC2)cc1-c1ccc2c(c1)NC(=O)C21CCC(F)(F)CC1 ; metabolised at 0.5 h, 5 µM observed: < 5%
